change of melting temperature, mutant - wild type (higher = more stable) reference
B1: Ribonuclease HI, P0A7Y4 (parent)
chain: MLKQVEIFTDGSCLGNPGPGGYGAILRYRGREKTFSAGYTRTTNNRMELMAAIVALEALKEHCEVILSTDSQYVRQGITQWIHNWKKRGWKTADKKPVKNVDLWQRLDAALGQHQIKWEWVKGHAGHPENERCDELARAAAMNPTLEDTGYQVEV

variants of: B1; settings: Escherichia coli (strain K12); pH 7.8; Thermal; CD; Sodium phosphate 20 mM; reversible: yes; structure 2RN2; whole UniProt chain shown
Write down the value, and be sure its unit follows.

H124A
0.1 °C

So for H62A H83A H124A H127A , the logged change of melting temperature, mutant - wild type (higher = more stable) turned out to be 1.5 °C

So for H83A , the logged change of melting temperature, mutant - wild type (higher = more stable) turned out to be -0.2 °C

So for H114A , the logged change of melting temperature, mutant - wild type (higher = more stable) turned out to be -7.7 °C

So for H62A H83A , the logged change of melting temperature, mutant - wild type (higher = more stable) turned out to be 1.3 °C

So for H124A H127A , the logged change of melting temperature, mutant - wild type (higher = more stable) turned out to be -0.1 °C

So for H62A , the logged change of melting temperature, mutant - wild type (higher = more stable) turned out to be 1 °C
